Attribute: half-life at 1 μM
experiment: Determination of metabolic stability with human liver microsomes; conditions: human, pooled human liver microsomes, pH 7.6

CN1C(=O)Cc2ccc(-c3ccc(C[C@@H](C#N)NC(=O)[C@H]4N[C@@H]5CC[C@H]4C5)c(F)c3)cc21 [Example 2] = > 2.08 h
CS(=O)(=O)c1cc(-c2cc(F)c(CC(C#N)NC(=O)[C@H]3N[C@@H]4CC[C@H]3C4)c(F)c2)ccc1C#N (some centres unmarked) [Example 52] = > 2.17 h
Cn1c(=O)c2cc(CC(C#N)NC(=O)[C@H]3N[C@@H]4CC[C@H]3C4)ccc2c2ccc(Cl)cc21 (some centres unmarked) [Example 305] = 1.52 h
N#Cc1ccc(-c2ccc(C[C@@H](C#N)NC(=O)[C@H]3N[C@H]4C[C@@H]3[C@@H]3C[C@@H]34)c(F)c2)s1 [Example 40] = > 2.17 h
N#C[C@H](Cc1ccc(N2CCC3C(=O)NCCC3C2)cc1F)NC(=O)[C@H]1N[C@@H]2CC[C@H]1C2 (some centres unmarked) [Example 248] = > 2.17 h

Answer with the recorded half-life at 1 μM for the compound listed here: N#C[C@H](Cc1ccc(-c2ccc(C(F)(F)F)s2)cc1F)NC(=O)[C@H]1N[C@@H]2CC[C@H]1C2 [Example 33] > 2.17 h

Answer with the recorded half-life at 1 μM for the compound listed here: COCCN1CCN(c2ccc(C[C@@H](C#N)NC(=O)[C@H]3N[C@@H]4CC[C@H]3C4)c(F)c2)CC1 [Example 182] > 2.17 h

Answer with the recorded half-life at 1 μM for the compound listed here: CC(C)C(O)Cc1cn(-c2ccc(C[C@@H](C#N)NC(=O)[C@H]3N[C@@H]4CC[C@H]3C4)c(F)c2)nn1 (some centres unmarked) [Example 109] > 2.17 h

Answer with the recorded half-life at 1 μM for the compound listed here: CS(=O)(=O)c1cc(-c2ccc(C[C@@H](C#N)NC(=O)[C@H]3N[C@@H]4CC[C@H]3C4)c(F)c2F)ccc1C#N [Example 183] > 2.17 h

Answer with the recorded half-life at 1 μM for the compound listed here: COCCOCc1cn(-c2ccc(C[C@@H](C#N)NC(=O)[C@H]3N[C@@H]4CC[C@H]3C4)c(F)c2)nn1 [Example 112] > 2.17 h

Answer with the recorded half-life at 1 μM for the compound listed here: CS(=O)(=NC#N)c1ccc(-c2ccc(C[C@@H](C#N)NC(=O)[C@H]3N[C@@H]4CC[C@H]3C4)c(F)c2)cc1 (some centres unmarked) [Example 263] > 2.17 h

Data credit: patent US8987249B2
